Assay: Pharmacokinetic study of Compound A in combination with Indinavir with and without fasting (Example 12)
Format: in vivo
Conditions: male, human, plasma, po, 600 mg Compound A (tablets) + 666 mg IDV (Indinavir), fasted, single oral dose, n=7; arithmetic mean
Experimental: All of the subjects received the regimen once in the fasted state and once with a high-fat breakfast. The two single-dose treatments (fasted, fed) were administered in randomized crossover fashion, separated by one week. […] The safety of the subjects was monitored prior and subsequent to dosing by clinical adverse event reporting, measurement of vital signs, physical examinations, blood and urine laboratory safety tests, and ECGs. […]
endpointName: Tmax (h)

[[record]]
smilesstr = "CC(C)(C)NC(=O)[C@@H]1CN(Cc2cc3ccccc3o2)CCN1C[C@@H](O)C[C@@H](Cc1ccccc1)C(=O)N[C@H]1c2ccccc2C[C@H]1O"
endpointname = "Tmax"
unitspec = "h"
observedmeasurement = 2.6


###

test: Pharmacokinetic study of Compound A alone and in combination with Indinavir in healthy human males (Example 11); type: in vivo; details: male, human, plasma, po, 2000 mg, 2000 mg single oral dose, suspension of sulfate salt, fasted, n=8; plasma 8 hours after dosing; read-out: C8 hrs
endpointName: concentration at 8 h (nM)

[[record]]
compound = "CC(C)(C)NC(=O)[C@@H]1CN(Cc2cc3ccccc3o2)CCN1C[C@@H](O)C[C@@H](Cc1ccccc1)C(=O)N[C@H]1c2ccccc2C[C@H]1O [Compound A]"
unitspec = "nM"
observedmeasurement = 444


###

experiment: Pharmacokinetic study of Compound A alone and in combination with Indinavir in healthy human males (Example 11); type: in vivo; conditions: male, human, plasma, po, 200 mg Compound A + 800 mg IDV (Indinavir) co-administered, single oral dose, fasted, n=6; arithmetic mean (CV %)
endpointName: AUC (µM·h)

[[record]]
compound = "CC(C)(C)NC(=O)[C@@H]1CN(Cc2cc3ccccc3o2)CCN1C[C@@H](O)C[C@@H](Cc1ccccc1)C(=O)N[C@H]1c2ccccc2C[C@H]1O [Compound A]"
observedmeasurement = 7.45


###

assay: Pharmacokinetic study of Compound A alone and in combination with Indinavir in healthy human males (Example 11); assay type: in vivo; settings: male, human, plasma, po, 600 mg, 600 mg (tablets) single oral dose, sulfate salt, fasted, n=8; plasma 24 hours after dosing; read-out: C24 hrs
endpointName: concentration at 24 h

[[record]]
smilesstr = "CC(C)(C)NC(=O)[C@@H]1CN(Cc2cc3ccccc3o2)CCN1C[C@@H](O)C[C@@H](Cc1ccccc1)C(=O)N[C@H]1c2ccccc2C[C@H]1O"
endpointname = "concentration at 24 h"
observedmeasurement = "17 nM"


###

test: Pharmacokinetic study of Compound A in healthy human males (Example 10); type: in vivo; settings: male, plasma, po, 400 mg, 400 mg w/food, single oral dose, suspension of sulfate salt, mean of 6 subjects (CV %)
endpointName: AUC

[[record]]
smilesstr = "CC(C)(C)NC(=O)[C@@H]1CN(Cc2cc3ccccc3o2)CCN1C[C@@H](O)C[C@@H](Cc1ccccc1)C(=O)N[C@H]1c2ccccc2C[C@H]1O"
observedmeasurement = "0.8 µM·h"


###

assay: Pharmacokinetic study of Compound A alone and in combination with Indinavir in healthy human males (Example 11); assay type: in vivo; details: male, human, plasma, po, 600 mg, 600 mg single oral dose, suspension of sulfate salt, fasted, n=8; arithmetic mean
endpointName: Tmax (h)

[[record]]
compound = "CC(C)(C)NC(=O)[C@@H]1CN(Cc2cc3ccccc3o2)CCN1C[C@@H](O)C[C@@H](Cc1ccccc1)C(=O)N[C@H]1c2ccccc2C[C@H]1O [Compound A]"
unitspec = "h"
observedmeasurement = 1.4


###

test: Pharmacokinetic study of Compound A in healthy human males (Example 10); format: in vivo; settings: male, plasma, po, 100 mg, 100 mg single oral dose, suspension of sulfate salt, fasted, mean of 6 subjects
endpointName: Tmax (min)

[[record]]
smilesstr = "CC(C)(C)NC(=O)[C@@H]1CN(Cc2cc3ccccc3o2)CCN1C[C@@H](O)C[C@@H](Cc1ccccc1)C(=O)N[C@H]1c2ccccc2C[C@H]1O"
observedmeasurement = 30


###

assay: Pharmacokinetic study of Compound A alone and in combination with Indinavir in healthy human males (Example 11); type: in vivo; conditions: male, human, plasma, po, 200 mg Compound A + 1200 mg IDV (Indinavir) co-administered, single oral dose, fasted, n=6; plasma 12 hours after dosing; read-out: C12 rs
endpointName: concentration at 12 h (nM)

[[record]]
smilesstr = "CC(C)(C)NC(=O)[C@@H]1CN(Cc2cc3ccccc3o2)CCN1C[C@@H](O)C[C@@H](Cc1ccccc1)C(=O)N[C@H]1c2ccccc2C[C@H]1O"
endpointname = "concentration at 12 h"
unitspec = "nM"
observedmeasurement = 107


###

test: Pharmacokinetic study of Compound A alone and in combination with Indinavir in healthy human males (Example 11); assay type: in vivo; details: male, human, plasma, po, 2000 mg, 2000 mg single oral dose, suspension of sulfate salt, fasted, n=8; arithmetic mean (CV %)
endpointName: AUC (µM·h)

[[record]]
smilesstr = "CC(C)(C)NC(=O)[C@@H]1CN(Cc2cc3ccccc3o2)CCN1C[C@@H](O)C[C@@H](Cc1ccccc1)C(=O)N[C@H]1c2ccccc2C[C@H]1O"
observedmeasurement = 10.4


###

assay: Pharmacokinetic study of Compound A in healthy human males (Example 10); format: in vivo; conditions: male, plasma, po, 1200 mg, 1200 mg single oral dose, suspension of sulfate salt, fasted, mean of 6 subjects (CV %)
endpointName: AUC (µM·h)

[[record]]
compound = "CC(C)(C)NC(=O)[C@@H]1CN(Cc2cc3ccccc3o2)CCN1C[C@@H](O)C[C@@H](Cc1ccccc1)C(=O)N[C@H]1c2ccccc2C[C@H]1O [Compound A]"
observedmeasurement = 7.28


###

experiment: Pharmacokinetic study of Compound A alone and in combination with Indinavir in healthy human males (Example 11); format: in vivo; details: male, human, plasma, po, 600 mg, 600 mg (tablets) single oral dose, sulfate salt, fasted, n=8; arithmetic mean
endpointName: Cmax (nM)

[[record]]
compound = "CC(C)(C)NC(=O)[C@@H]1CN(Cc2cc3ccccc3o2)CCN1C[C@@H](O)C[C@@H](Cc1ccccc1)C(=O)N[C@H]1c2ccccc2C[C@H]1O [Compound A]"
observedmeasurement = 211


###

assay: Pharmacokinetic study of Compound A in healthy human males (Example 10); format: in vivo; settings: male, plasma, po, 50 mg, 50 mg single oral dose, suspension of sulfate salt, fasted, mean of 6 subjects (CV %)
endpointName: Cmax

[[record]]
smilesstr = "CC(C)(C)NC(=O)[C@@H]1CN(Cc2cc3ccccc3o2)CCN1C[C@@H](O)C[C@@H](Cc1ccccc1)C(=O)N[C@H]1c2ccccc2C[C@H]1O"
observedmeasurement = "12 nM"


###

test: Pharmacokinetic study of Compound A in healthy human males (Example 10); type: in vivo; settings: male, plasma, po, 400 mg, 400 mg single oral dose, suspension of sulfate salt, fasted, mean of 6 subjects (CV %)
endpointName: AUC (µM·h)

[[record]]
smilesstr = "CC(C)(C)NC(=O)[C@@H]1CN(Cc2cc3ccccc3o2)CCN1C[C@@H](O)C[C@@H](Cc1ccccc1)C(=O)N[C@H]1c2ccccc2C[C@H]1O"
unitspec = "µM·h"
observedmeasurement = 0.66


###

assay: Pharmacokinetic study of Compound A in combination with Indinavir with and without fasting (Example 12); format: in vivo; details: male, human, plasma, oral, 600 mg Compound A (tablets) + 666 mg IDV (Indinavir), fasted, n=7; plasma 8 hours after dosing; read-out: C8 hrs
endpointName: concentration at 8 h (nM)

[[record]]
smilesstr = "CC(C)(C)NC(=O)[C@@H]1CN(Cc2cc3ccccc3o2)CCN1C[C@@H](O)C[C@@H](Cc1ccccc1)C(=O)N[C@H]1c2ccccc2C[C@H]1O"
endpointname = "concentration at 8 h"
observedmeasurement = 583


###

Assay: Pharmacokinetic study of Compound A in healthy human males (Example 10)
Format: in vivo
Settings: male, plasma, po, 400 mg, 400 mg w/food, single oral dose, suspension of sulfate salt, mean of 6 subjects
Experimental: A double-blind, single-rising dose, alternating two-panel, four-period, placebo-controlled study was conducted for Compound A in healthy adult males in the fasted state. […] The safety of the subjects was monitored prior and subsequent to dosing by clinical adverse event reporting, measurement of vital signs, physical examinations, blood and urine laboratory safety tests, and ECGs. […]
endpointName: Tmax (h)

[[record]]
molecule = "CC(C)(C)NC(=O)[C@@H]1CN(Cc2cc3ccccc3o2)CCN1C[C@@H](O)C[C@@H](Cc1ccccc1)C(=O)N[C@H]1c2ccccc2C[C@H]1O [Compound A]"
observedmeasurement = 4


###

test: Pharmacokinetic study of Compound A alone and in combination with Indinavir in healthy human males (Example 11); assay type: in vivo; conditions: male, human, plasma, po, 400 mg Compound A + 800 mg IDV (Indinavir) co-administered, single oral dose, fasted, n=6; arithmetic mean
endpointName: Cmax

[[record]]
compound = "CC(C)(C)NC(=O)[C@@H]1CN(Cc2cc3ccccc3o2)CCN1C[C@@H](O)C[C@@H](Cc1ccccc1)C(=O)N[C@H]1c2ccccc2C[C@H]1O [Compound A]"
observedmeasurement = "2350 nM"


Values from patent EP1044000B1
